Assayed System: T1, Factor VIIIa (recombinant FVIII, Kogenate FS, activated with alpha-thrombin) (UniProt P00451 20-2351)
T1 construct: also called FVIIIa; cofactor
T1 sequence (looked up): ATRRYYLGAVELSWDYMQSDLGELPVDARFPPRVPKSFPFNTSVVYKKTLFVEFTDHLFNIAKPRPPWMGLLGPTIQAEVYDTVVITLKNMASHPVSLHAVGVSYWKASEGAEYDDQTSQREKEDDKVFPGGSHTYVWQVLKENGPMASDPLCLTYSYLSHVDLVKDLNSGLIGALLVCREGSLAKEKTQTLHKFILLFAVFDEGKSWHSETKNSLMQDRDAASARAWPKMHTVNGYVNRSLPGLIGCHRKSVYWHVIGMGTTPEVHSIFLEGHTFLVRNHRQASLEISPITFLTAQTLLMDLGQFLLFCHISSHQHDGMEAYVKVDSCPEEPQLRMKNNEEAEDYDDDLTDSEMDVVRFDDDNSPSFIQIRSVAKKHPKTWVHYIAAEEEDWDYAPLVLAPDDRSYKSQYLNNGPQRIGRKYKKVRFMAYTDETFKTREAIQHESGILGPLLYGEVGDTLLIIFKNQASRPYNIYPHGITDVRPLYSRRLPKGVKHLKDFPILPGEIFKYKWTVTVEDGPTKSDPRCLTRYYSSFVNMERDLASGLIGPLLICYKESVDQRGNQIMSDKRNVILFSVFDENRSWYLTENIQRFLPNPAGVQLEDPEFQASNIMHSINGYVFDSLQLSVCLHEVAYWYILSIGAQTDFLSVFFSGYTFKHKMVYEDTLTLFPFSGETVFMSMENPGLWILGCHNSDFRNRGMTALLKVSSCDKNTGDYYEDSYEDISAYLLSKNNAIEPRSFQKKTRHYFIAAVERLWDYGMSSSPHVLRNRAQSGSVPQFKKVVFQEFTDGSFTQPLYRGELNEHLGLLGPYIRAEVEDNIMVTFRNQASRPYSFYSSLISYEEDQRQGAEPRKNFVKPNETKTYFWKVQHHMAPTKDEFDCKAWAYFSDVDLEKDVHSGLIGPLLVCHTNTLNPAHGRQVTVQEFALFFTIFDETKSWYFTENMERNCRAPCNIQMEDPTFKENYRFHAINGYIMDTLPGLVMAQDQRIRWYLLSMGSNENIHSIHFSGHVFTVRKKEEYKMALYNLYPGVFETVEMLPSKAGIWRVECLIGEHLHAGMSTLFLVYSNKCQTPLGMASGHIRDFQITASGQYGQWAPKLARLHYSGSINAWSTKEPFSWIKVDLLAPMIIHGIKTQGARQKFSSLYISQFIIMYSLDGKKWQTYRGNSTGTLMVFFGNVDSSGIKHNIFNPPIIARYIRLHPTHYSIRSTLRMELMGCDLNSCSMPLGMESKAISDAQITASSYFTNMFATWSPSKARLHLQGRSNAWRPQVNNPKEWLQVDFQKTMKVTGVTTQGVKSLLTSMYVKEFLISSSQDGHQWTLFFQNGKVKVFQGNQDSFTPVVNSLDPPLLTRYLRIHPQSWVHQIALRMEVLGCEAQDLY
Protocol Description: apparent functional KD (KD-app): FXa generation by FIXa with FVIIIa titrated, PC/PS vesicles, saturating FX, fluorogenic Spectrafluor FXa
Flag rule - Kd less than 50 nM flags yes; the remaining entries get no.

Below are worked cases with known answers.
1) FIXa-R318Y/R338E/R403E/E410N (enzyme, also called R150Y/R170E/R233E/E240N) chain 1: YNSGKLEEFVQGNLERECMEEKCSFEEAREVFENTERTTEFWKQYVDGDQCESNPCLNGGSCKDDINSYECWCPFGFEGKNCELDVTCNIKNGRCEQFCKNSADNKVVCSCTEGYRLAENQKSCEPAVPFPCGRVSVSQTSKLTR chain 2: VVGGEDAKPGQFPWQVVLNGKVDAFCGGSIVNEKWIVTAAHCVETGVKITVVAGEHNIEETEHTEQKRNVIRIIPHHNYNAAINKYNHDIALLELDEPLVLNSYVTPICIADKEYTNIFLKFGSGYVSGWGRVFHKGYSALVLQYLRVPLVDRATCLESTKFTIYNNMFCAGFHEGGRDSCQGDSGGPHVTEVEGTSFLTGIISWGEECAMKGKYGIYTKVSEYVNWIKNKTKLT	yes
2) FIXa-R318Y/R338E/E410N (enzyme, also called R150Y/R170E/E240N) chain 1: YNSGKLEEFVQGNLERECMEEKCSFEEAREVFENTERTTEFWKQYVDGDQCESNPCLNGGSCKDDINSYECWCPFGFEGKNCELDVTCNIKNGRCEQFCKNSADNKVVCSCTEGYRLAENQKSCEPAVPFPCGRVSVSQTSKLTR chain 2: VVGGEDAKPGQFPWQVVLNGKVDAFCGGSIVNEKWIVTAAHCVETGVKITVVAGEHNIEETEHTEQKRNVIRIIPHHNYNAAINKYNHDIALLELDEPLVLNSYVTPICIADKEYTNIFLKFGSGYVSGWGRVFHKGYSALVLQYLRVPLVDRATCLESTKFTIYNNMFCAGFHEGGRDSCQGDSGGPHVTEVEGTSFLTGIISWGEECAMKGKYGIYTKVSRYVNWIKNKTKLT	yes
3) FIXa-D104N/K106S/R318Y/R338E/E410N (enzyme) chain 1: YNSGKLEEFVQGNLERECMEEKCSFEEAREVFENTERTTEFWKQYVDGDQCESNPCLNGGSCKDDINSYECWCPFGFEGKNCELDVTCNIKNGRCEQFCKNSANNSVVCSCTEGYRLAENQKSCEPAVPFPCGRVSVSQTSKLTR chain 2: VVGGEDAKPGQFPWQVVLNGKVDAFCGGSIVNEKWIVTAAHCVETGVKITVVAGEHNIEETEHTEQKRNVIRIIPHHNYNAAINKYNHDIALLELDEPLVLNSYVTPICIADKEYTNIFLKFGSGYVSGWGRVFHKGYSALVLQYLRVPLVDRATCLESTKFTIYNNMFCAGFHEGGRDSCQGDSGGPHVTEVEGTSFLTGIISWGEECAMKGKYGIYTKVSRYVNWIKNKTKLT	yes
4) FIXa-R338E/R403E/E410N (enzyme, also called R170E/R233E/E240N) chain 1: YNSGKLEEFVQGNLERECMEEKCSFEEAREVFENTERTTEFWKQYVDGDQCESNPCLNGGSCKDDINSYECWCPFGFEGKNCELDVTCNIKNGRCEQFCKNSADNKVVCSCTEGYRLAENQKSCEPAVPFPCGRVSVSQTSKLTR chain 2: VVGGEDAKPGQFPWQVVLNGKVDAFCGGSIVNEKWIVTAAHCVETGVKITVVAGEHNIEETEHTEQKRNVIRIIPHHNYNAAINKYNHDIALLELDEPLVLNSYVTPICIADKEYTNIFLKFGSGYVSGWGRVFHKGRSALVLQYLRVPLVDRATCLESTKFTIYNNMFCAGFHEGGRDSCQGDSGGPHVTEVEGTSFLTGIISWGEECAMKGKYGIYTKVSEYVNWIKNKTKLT	no

# input Given the entry FIXa-R318Y/R338E/R403E (enzyme, also called R150Y/R170E/R233E) chain 1: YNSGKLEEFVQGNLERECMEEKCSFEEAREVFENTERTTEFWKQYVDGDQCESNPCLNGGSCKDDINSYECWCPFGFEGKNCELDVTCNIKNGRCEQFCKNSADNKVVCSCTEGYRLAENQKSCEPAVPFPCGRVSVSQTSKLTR chain 2: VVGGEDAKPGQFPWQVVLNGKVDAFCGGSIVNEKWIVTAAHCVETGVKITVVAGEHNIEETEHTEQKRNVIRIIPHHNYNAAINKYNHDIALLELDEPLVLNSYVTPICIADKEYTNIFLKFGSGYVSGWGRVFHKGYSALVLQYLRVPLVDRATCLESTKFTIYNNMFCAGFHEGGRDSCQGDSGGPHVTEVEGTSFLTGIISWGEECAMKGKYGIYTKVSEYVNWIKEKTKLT , would its reported Kd be below 50 nM?
# output no

All figures here come from patent US20210238260A1.
